Reference for the values: ChEMBL document CHEMBL1201862

tested on: NCI-H226; test: NCI tumour cell line growth inhibition, 48 h
Calls of active or inactive are those of the source. Rule as the data show it: active = GI50 up to about 1.1 µM and inactive = higher.
One label from this list, please: active, inactive

Example entries and their recorded answers appear below.
- compound: "COC(=O)C1(CCC(=O)N(C)c2ccccc2)NNC2C(=O)N(c3ccccc3)C(=O)C21 (stereo not given)"
  tested.target: "NCI-H226"
  group.label: "inactive"
- compound: "COC(=O)[C@H](COC(=O)/C=C/c1ccc(OC(C)=O)c(OC(C)=O)c1)NC(=O)/C=C/c1ccc(OC(C)=O)c(OC(C)=O)c1"
  tested.target: "NCI-H226"
  group.label: "inactive"
- compound: "Cc1cc(C)c2c(c1)CC1(Cc3c(C)cc(C)cc3C1=O)C2=O (stereo not given)"
  tested.target: "NCI-H226"
  group.label: "inactive"
- compound: "C[C@@H]([C@H]1CC[C@@]2(C)[C@@H]3CC[C@@H]4C(=CC3=CC[C@]12C)CC[C@H](N(C)C)C4(C)C)N(C)C"
  tested.target: "NCI-H226"
  group.label: "inactive"
- compound: "Cc1c(O)c(=O)ccn1CCO"
  tested.target: "NCI-H226"
  group.label: "inactive"
- compound: "O=C1CSC(c2ccc(Cl)cc2)N1c1ccc(-n2c(-c3ccccc3)nc3ccccc3c2=O)cc1 (stereo not given)"
  tested.target: "NCI-H226"
  group.label: "inactive"
- compound: "O=C1c2cccc3cc([N+](=O)[O-])cc(c23)C(=O)N1CCCN1CCN(CCCN2C(=O)c3cccc4cc([N+](=O)[O-])cc(c34)C2=O)CC1"
  tested.target: "NCI-H226"
  group.label: "active"
- compound: "Cc1cccc2c1CC(Cc1ccccc1C(=O)O)C2=O (stereo not given)"
  tested.target: "NCI-H226"
  group.label: "inactive"
- compound: "CCOC(=O)Cn1nc2ccc(Nc3nc4ccccc4nc3C(=O)OCC)cc2n1"
  tested.target: "NCI-H226"
  group.label: "inactive"
- compound: "O=c1ncc(F)cn1C1OC(CO)C(O)C1O (stereo not given)"
  tested.target: "NCI-H226"
  group.label: "inactive"

State the result this test recorded for O=C(c1cc(Cl)ccc1Cl)N1CCN(c2ccc(Cl)c(Cl)c2)CC1 .
inactive

State the result this test recorded for CCSCCCCC(c1ccc(O)cc1)C(C)(CC)c1ccc(O)cc1 (stereo not given) .
inactive

State the result this test recorded for O=C1CCC(c2ccccc2)(c2ccccc2)CC1 .
inactive

State the result this test recorded for O=C(O)COc1cc(-c2ccccc2)nc2ccc(F)cc12 .
inactive

State the result this test recorded for COc1cc(/C=C/C(=O)CC(=O)/C=C/c2cc(C)c(O)c(OC)c2)cc(C)c1O .
inactive

State the result this test recorded for CCN1CCN(c2nc3ccc([N+](=O)[O-])cc3nc2C(=O)c2ccccc2)CC1 .
inactive

###

tested on: RPMI-8226; assay: NCI tumour cell line growth inhibition, 48 h
Activity calls are given as the source filed them. Cut-off read from the data, not from the text of the source: active = GI50 up to about 1.1 µM and inactive = higher. Square brackets hold non-standard residues; d marks the D form. Peptide text beside a SMILES is read from it. * marks the point of attachment. NMeV = CN[C@H](C(=O)O)C(C)C; X28 = COc1ccc(CN*)c(OC)c1; Octanoyl = CCCCCCCC(=O)*; dNMeA = CN[C@H](C)C(=O)O
One label from this list, please: y for active, n for inactive

Example entries and their recorded answers appear below.
- molecule: "C=C(CN(C)C)C(=O)c1ccc(C)cc1C"
  group.label: "n"
- molecule: "CCCCCCCC(=O)N[C@H](C(=O)N[C@H](C(=O)N(C)[C@H](C(=O)N1CCC[C@H]1C(=O)N(C)[C@H](C)C(=O)NCc1ccc(OC)cc1OC)C(C)C)C(C)C)C(C)C (Octanoyl-VV[NMeV]P[dNMeA]-X28)"
  group.label: "n"

Could you now look at the following molecule, please?
State the result this test recorded for O=C1c2ccsc2C(=O)c2sc(CO)cc21 .
y
